B1: ATE1 (parent)
chain: YGSFHQQYWLDGKIIAVGVIDILP

- Variants of: B1
- protocol: protein stability index of a GFP-peptide fusion (GPS, HEK-293T) (PSI 1-6); higher = more stable;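 further: lentivirally expressed fusions sorted by FACS into six bins by GFP to DsRed ratio, PSI derived from sequencing read proportions per bin multiplied by bin number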
- runParameters: c terminus: a fixed tail appended
Hi, to clarify the labels: Criterion met covers protein stability index from 3 upward, Criterion not met covers anything below 3.

Example entries begin here.
I15H = Criterion met
L10C = Criterion not met
P24M = Criterion not met
S3W = Criterion not met
G2T = Criterion met
I22M = Criterion met
Q6H = Criterion not met
V19T = Criterion not met

[in] Quick check: does I14T have protein stability index greater than or equal to 3?
[out] Criterion not met

[in] Quick check: does L23Q have protein stability index greater than or equal to 3?
[out] Criterion met

[in] Quick check: does L10I have protein stability index greater than or equal to 3?
[out] Criterion met

[in] Quick check: does Q6N have protein stability index greater than or equal to 3?
[out] Criterion met

[in] Quick check: does W9D have protein stability index greater than or equal to 3?
[out] Criterion not met

[in] Quick check: does H5F have protein stability index greater than or equal to 3?
[out] Criterion not met

[in] Quick check: does G12S have protein stability index greater than or equal to 3?
[out] Criterion not met

[in] Quick check: does D11W have protein stability index greater than or equal to 3?
[out] Criterion not met

[in] Quick check: does S3E have protein stability index greater than or equal to 3?
[out] Criterion not met

[in] Quick check: does W9M have protein stability index greater than or equal to 3?
[out] Criterion not met

[in] Quick check: does I20W have protein stability index greater than or equal to 3?
[out] Criterion not met
